experimental-target: T1, TNFR1 (Homo sapiens, UniProt P19438)
T1 chain: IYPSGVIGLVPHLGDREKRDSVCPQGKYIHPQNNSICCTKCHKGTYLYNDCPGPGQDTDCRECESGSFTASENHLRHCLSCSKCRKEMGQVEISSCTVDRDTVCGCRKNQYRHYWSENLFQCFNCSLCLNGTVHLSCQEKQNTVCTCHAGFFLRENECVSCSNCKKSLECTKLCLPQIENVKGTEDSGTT
assay-info: yeast display SC50
readout-label: apparent Kd (screen) (nM)

Some solved entries appear below for comparison.
Q: What apparent Kd (screen) value was documented for this binder, L76F (designed binder) SMEEEVEKAAKEYEKKKKEAIEKHLEKLKAKDKEAAERFLKELEEAAKEYAKDEAKTMSEEEAKRRAKKYKEKVLFSELSEEEQKEIKEAEEKLVRTILKYVEEAAK ?
A: 0.539

Q: Reported apparent Kd (screen), binder K69Q (designed binder) SMEEEVEKAAKEYEKKKKEAIEKHLEKLKAKDKEAAERFLKELEEAAKEYAKDEAKTMSEEEAKRRAKQYKEKVLLSELSEEEQKEIKEAEEKLVRTILKYVEEAAK : ____
A: 0.446

Q: Given the entry F39H (designed binder) SMEEEVEKAAKEYEKKKKEAIEKHLEKLKAKDKEAAERHLKELEEAAKEYAKDEAKTMSEEEAKRRAKKYKEKVLLSELSEEEQKEIKEAEEKLVRTILKYVEEAAK , report its measured apparent Kd (screen).
A: 4.39

Q: Tell me the measured apparent Kd (screen) of A36T (designed binder) SMEEEVEKAAKEYEKKKKEAIEKHLEKLKAKDKEATERFLKELEEAAKEYAKDEAKTMSEEEAKRRAKKYKEKVLLSELSEEEQKEIKEAEEKLVRTILKYVEEAAK , please.
A: 1.69

Q: Can you share its apparent Kd (screen)? I mean this binder: L25R (designed binder) SMEEEVEKAAKEYEKKKKEAIEKHREKLKAKDKEAAERFLKELEEAAKEYAKDEAKTMSEEEAKRRAKKYKEKVLLSELSEEEQKEIKEAEEKLVRTILKYVEEAAK
A: 1.69

Q: Tell me the measured apparent Kd (screen) of Y70L (designed binder) SMEEEVEKAAKEYEKKKKEAIEKHLEKLKAKDKEAAERFLKELEEAAKEYAKDEAKTMSEEEAKRRAKKLKEKVLLSELSEEEQKEIKEAEEKLVRTILKYVEEAAK , please.
A: 8.56

1 = E12A (designed binder) SMEEEVEKAAKAYEKKKKEAIEKHLEKLKAKDKEAAERFLKELEEAAKEYAKDEAKTMSEEEAKRRAKKYKEKVLLSELSEEEQKEIKEAEEKLVRTILKYVEEAAK
2 = S1G (designed binder) GMEEEVEKAAKEYEKKKKEAIEKHLEKLKAKDKEAAERFLKELEEAAKEYAKDEAKTMSEEEAKRRAKKYKEKVLLSELSEEEQKEIKEAEEKLVRTILKYVEEAAK
3 = Y50C (designed binder) SMEEEVEKAAKEYEKKKKEAIEKHLEKLKAKDKEAAERFLKELEEAAKECAKDEAKTMSEEEAKRRAKKYKEKVLLSELSEEEQKEIKEAEEKLVRTILKYVEEAAK
4 = V74A (designed binder) SMEEEVEKAAKEYEKKKKEAIEKHLEKLKAKDKEAAERFLKELEEAAKEYAKDEAKTMSEEEAKRRAKKYKEKALLSELSEEEQKEIKEAEEKLVRTILKYVEEAAK
5 = D53Q (designed binder) SMEEEVEKAAKEYEKKKKEAIEKHLEKLKAKDKEAAERFLKELEEAAKEYAKQEAKTMSEEEAKRRAKKYKEKVLLSELSEEEQKEIKEAEEKLVRTILKYVEEAAK
Q: // ascending sort on recorded apparent Kd (screen) // respond by listing labels in the order requested
A: 1, 2, 3, 5, 4
(1: 0.446 nM, 2: 0.653 nM, 3: 0.956 nM, 5: 2.05 nM, 4: 16.7 nM)
